test: Cytotoxicity in full-length replicon cells (GAPDH mRNA, real-time RT-PCR); assay type: cell-based; details: human, NNC #2 (full-length HCV replicon) cells, GAPDH RNA level
Experimental endpoint: CC50 at 3 days (µM)

>  <Input smiles>
CCCCn1c(=O)c2ccccc2c2cc(C(C)C)ccc21

>  <Endpoint unit>
µM

>  <Value observed>
27.7

$$$$

* * *

assay: Cytotoxicity in subgenomic replicon cells (GAPDH mRNA, real-time RT-PCR); format: cell-based; conditions: human, #50-1 (subgenomic HCV replicon) cells, GAPDH RNA level
Experimental endpoint: CC50 at 3 days (µM)

>  <Compound>
CCCCn1c(=O)c2cc3ccccc3cc2c2ccccc21 [MN314-B, 5-butylbenzo[j]phenanthridin-6(5H)-one]

>  <Experimental endpoint>
CC50 at 3 days

>  <Limit operator>
=

>  <Value observed>
33.5

$$$$
>  <Compound>
CCCCn1c(=O)c2c3ccccc3ccc2c2ccccc21 [MN306, 6-butylbenzo[i]phenanthridin-5(6H)-one]

>  <Experimental endpoint>
CC50 at 3 days

>  <Limit operator>
>

>  <Value observed>
40

$$$$
>  <Compound>
CCCCn1c(=O)c2ccccc2c2cc(C(C)C)ccc21 [PN-iPr]

>  <Experimental endpoint>
CC50 at 3 days

>  <Limit operator>
=

>  <Value observed>
20.5

$$$$
>  <Compound>
CCCCn1c(=O)c2ccccc2c2cc3c(cc21)C(C)(C)CCC3(C)C [MN256]

>  <Experimental endpoint>
CC50 at 3 days

>  <Limit operator>
=

>  <Value observed>
31.7

$$$$
>  <Compound>
CCCCn1c(=O)c2ccccc2c2cc3ccccc3cc21 [MN313-B, 6-butylbenzo[b]phenanthridin-5(6H)-one]

>  <Experimental endpoint>
CC50 at 3 days

>  <Limit operator>
=

>  <Value observed>
6.3

$$$$
>  <Compound>
CCCCn1c(=O)c2ccccc2c2cc(C(C)(C)C)ccc21 [MN325]

>  <Experimental endpoint>
CC50 at 3 days

>  <Limit operator>
=

>  <Value observed>
34.4

$$$$
